src = the supplement of paper PMC10567573

B1: SPOPL (parent)
chain: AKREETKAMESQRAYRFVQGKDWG

Variants of: B1
Assay: protein stability index of a GFP-peptide fusion (GPS, HEK-293T) (PSI 1-6); higher = more stable;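 further: lentivirally expressed fusions sorted by FACS into six bins by GFP to DsRed ratio, PSI derived from sequencing read proportions per bin multiplied by bin number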
Settings: c terminus: a fixed tail appended
Readings of protein stability index for the listed variants
# output: bare number, no unit

# annotated cases, reported protein stability index shown
sequence_entry="PKREETKAMESQRAYRFVQGKDWG [A1P]" experimental_endpoint="protein stability index" readout_value=3.02
sequence_entry="AKREETKAMESPRAYRFVQGKDWG [Q12P]" experimental_endpoint="protein stability index" readout_value=2.97
sequence_entry="AKREETKAMSSQRAYRFVQGKDWG [E10S]" experimental_endpoint="protein stability index" readout_value=3
sequence_entry="AKREETKAMMSQRAYRFVQGKDWG [E10M]" experimental_endpoint="protein stability index" readout_value=2.29
sequence_entry="AKREETKAMESQRSYRFVQGKDWG [A14S]" experimental_endpoint="protein stability index" readout_value=3.3

stdin: I'd like to know its protein stability index. The variant in question is AKREETKAMESQRAYRFVQGKDWI [G24I]
stdout: 3

stdin: I'd like to know its protein stability index. The variant in question is AKREETKDMESQRAYRFVQGKDWG [A8D]
stdout: 4.01

stdin: I'd like to know its protein stability index. The variant in question is AKRESTKAMESQRAYRFVQGKDWG [E5S]
stdout: 2.32

stdin: I'd like to know its protein stability index. The variant in question is AKREETKAMWSQRAYRFVQGKDWG [E10W]
stdout: 2.4

stdin: I'd like to know its protein stability index. The variant in question is AKREETKAMESQRATRFVQGKDWG [Y15T]
stdout: 4.7
